Parameter: inhibition of SARS-CoV-2 cytopathic effect. Scope: all listed entries.
# Test system: Vero E6 infected with SARS-CoV-2
# assay.comment: inhibition of SARS-CoV-2 cytopathic effect; higher = more antiviral protection, active = above 15
# cond: 10000 nM; 48 h
property.label: inhibition of SARS-CoV-2 cytopathic effect (%)

compound="CC(=O)[C@H]1CC[C@H]2[C@@H]3CC=C4C[C@@H](OC(=O)CCC(=O)O)CC[C@]4(C)[C@H]3CC[C@]12C [pregnenolone-succinate]" measurement_units=% readout_number=5.05
compound=COc1ccccc1S(=O)(=O)Nc1ccc2c(c1)CN(C)C(=O)N2 measurement_units=% readout_number=-5.29
compound=Cc1cc(C)c(CNC(=O)c2cc(-c3ccc(N4CCN(C)CC4)nc3)cc3c2c(C)cn3C(C)C)c(=O)[nH]1 measurement_units=% readout_number=-3.02
compound="COc1ccc(C2CC(c3c(O)cc(C)oc3=O)=NCCS2)c(OC)c1 (stereo unspecified)" measurement_units=% readout_number=-8.62
compound="Cn1cc([S+](C)[O-])c(=O)c2ccc(F)cc21 (stereo unspecified) [flosequinan]" measurement_units=% readout_number=0.19
compound="S=C(NCc1ccc2c(c1)OCO2)N1CCN(c2ncnc3c2oc2ccccc23)CC1 [amuvatinib]" measurement_units=% readout_number=-1.9
